All figures here come from patent US20260115256A1.

Answer each item with its documented EC50, CRE-luciferase assay.
Molecular target: T1, human amylin receptor (AMY3) on CHO-K1/Ga15/AMY3 cells (human, UniProt P30988 25-474; O60896 24-148)
T1 sequence (looked up) 1: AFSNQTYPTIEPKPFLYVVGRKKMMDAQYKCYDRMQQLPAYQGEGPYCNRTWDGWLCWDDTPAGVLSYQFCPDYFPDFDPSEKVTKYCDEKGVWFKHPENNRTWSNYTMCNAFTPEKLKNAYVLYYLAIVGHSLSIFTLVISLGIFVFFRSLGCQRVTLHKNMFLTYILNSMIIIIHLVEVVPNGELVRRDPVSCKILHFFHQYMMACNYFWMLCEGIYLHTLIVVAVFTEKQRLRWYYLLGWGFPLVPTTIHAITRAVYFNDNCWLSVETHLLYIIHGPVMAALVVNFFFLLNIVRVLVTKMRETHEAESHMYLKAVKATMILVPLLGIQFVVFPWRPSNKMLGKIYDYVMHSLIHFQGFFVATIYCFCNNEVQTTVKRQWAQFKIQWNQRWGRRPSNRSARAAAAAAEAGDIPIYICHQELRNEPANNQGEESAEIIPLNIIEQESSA
T1 sequence (looked up) 2: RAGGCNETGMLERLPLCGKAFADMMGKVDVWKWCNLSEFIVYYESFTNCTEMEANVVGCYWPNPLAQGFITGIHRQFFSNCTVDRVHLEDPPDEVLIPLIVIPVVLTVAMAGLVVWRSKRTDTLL
Assay: cell-based or functional assay
*1 amine or outer side, *2 acyl side, *3 side chain or, on linkers, in order; H or OH if unused. Bridges are numbered along the chain shown (N, C = ends). Primed or numbered codes have the meaning given here. Where no end group is shown, it is not given here. Side-chain parts run from the residue outwards. [ ]: non-standard residue; d: D form. The star is where a group is joined. C20 diacid = O=C(O)CCCCCCCCCCCCCCCCCCC(=O)*; C18 diacid = O=C(O)CCCCCCCCCCCCCCCCC(=O)*; γGlu = O=C(O)[C@H](CCC(=O)[*:2])N[*:1]; βAsp = O=C(O)[C@H](CC(=O)[*:2])N[*:1]; Hyp = O=C(O)[C@@H]1C[C@@H](O)CN1; Cit = NC(=O)NCCC[C@H](N)C(=O)O; Trx′ = not defined here; Dap = NC[C@H](N)C(=O)O; AEEA = NCCOCCOCC(=O)O; Sar = CNCC(=O)O
Give bare numbers, in nM.

Consider the worked cases shown below.
[Q] Field request: EC50, CRE-luciferase assay | item: RCNTATCATQRLAEFLRHSSK([γGlu-C20 diacid])NLGPILPPTNVGSNTP-NH2 (disulfide 2-7 (inferred)) [PD006]
[A] 0.129

[Q] Field request: EC50, CRE-luciferase assay | item: RCNTATCATQRLADFLRHSSNNK([AEEA-γGlu-C20 diacid])GPILPPTNVGSNT[Hyp]-NH2 (disulfide 2-7 (inferred)) [PD110]
[A] 0.039

[Q] Field request: EC50, CRE-luciferase assay | item: RCNTATCATQRLADFLRHSSK([AEEA-γGlu-C18 diacid])NLGPILPPTNVGSNT[Hyp]-NH2 (disulfide 2-7 (inferred)) [PD115]
[A] 0.011

[Q] Field request: EC50, CRE-luciferase assay | item: RCNTATCATQRLA[Dap]FLRHSSNNLK([γGlu-C20 diacid])PILPPTNVGSNTP-NH2 (disulfide 2-7 (inferred)) [PD045]
[A] 0.364

[Q] Field request: EC50, CRE-luciferase assay | item: {C20 diacid-AEEA-AEEA-βAsp}-KCNTATCATQRLADFLRHSSNNLKPILPPTNVGSNT[Hyp]-NH2 (disulfide 2-7 (inferred)) [PD184]
[A] 0.037

// for each binder below, give its EC50, CRE-luciferase assay
1. RCNTATCATQRLAEFLRHSSNNLK([γGlu-C20 diacid])PILPPTNVGSGT[Hyp]-NH2 (disulfide 2-7 (inferred)) [PD041]
2. {C20 diacid-γGlu}-KCNTATCATQRLANFLVHSSNNFGPILPPTNVGSNTY-NH2 (ends and bridges not checked) [PD156]
3. RCNTATCATQRLAEFLRHSSNK([AEEA-AEEA-γGlu-C20 diacid])LGPILPPTNVGSNTP-NH2 (disulfide 2-7 (inferred)) [PD002]
4. {C20 diacid-γGlu}-KCNTATCATQRLADFLRHSSNNL[Sar]PILPPTNVGSNTP-NH2 (disulfide 2-7 (inferred)) [PD172]

[A]
0.259
0.029
0.119
0.075

// for each binder below, give its EC50, CRE-luciferase assay
1. CNTATCATQRLADFLRHSSNNLK([γGlu-C20 diacid])PILPPTNVGSNTX-NH2 (disulfide 1-6 (inferred); not fully specified (residue 36); printed as CNTATCATQRLADFLRHSSNNLKPILPPTNVGSNT-trans-Hyp-NH2) [PD054]
2. {C20 diacid-γGlu}-KCNTATCATQRLADFLRHSSNNL[Trx′]PILPPTNVGSNTP-NH2 (disulfide 2-7 (inferred); reading uncertain) [PD173]
3. DCNTATCATQRLADFLRHSSNNLK([γGlu-C20 diacid])PILPPTNVGSNT[Hyp]-NH2 (disulfide 2-7 (inferred)) [PD079]
4. RCNTATCATQRLAEFLRHSSNK([γGlu-C20 diacid])LGPILPPTNVGSNTP-NH2 (disulfide 2-7 (inferred)) [PD007]
5. {C20 diacid-γGlu}-KCNTATCATQRLADFLRHSSNNLRPILPPTNVGSNT[Hyp]-NH2 (disulfide 2-7 (inferred)) [PD158]
6. RCNTATCATQRLADFLRHSSNNK([γGlu-C18 diacid])GPILPPTNVGSNT[Hyp]-NH2 (disulfide 2-7 (inferred)) [PD084]
7. {C20 diacid-γGlu}-KCNTATCATQRLADFLRHSSNNL[Cit]PILPPTNVGSNTP-NH2 (disulfide 2-7 (inferred)) [PD171]

[A]
1. 0.049
2. 0.064
3. 0.131
4. 0.205
5. 0.022
6. 0.008
7. 0.053

[Q] Field request: EC50, CRE-luciferase assay | item: RCNTATCATQRLADFLRHSK([γGlu-C18 diacid])NNLGPILPPTNVGSNT[Hyp]-NH2 (disulfide 2-7 (inferred)) [PD096]
[A] 0.042
